test system: SN12C; test: NCI tumour cell line growth inhibition, 48 h
Calls of active or inactive are those of the source. No stated cut-off is given here; in the data, active = GI50 up to about 1.1 µM and inactive = higher.
metric.name: GI50

Here are 5 compounds together with their reported answers.
{"columns": ["compound", "GI50"],
 "data": [
  ["O=C(NCCO)Nc1c(C(F)(F)F)cc(-c2ccccc2)[nH]c1=O", "> 100 µM (inactive)"],
  ["Cc1ccc(/C=C/C(=O)c2ccc(Cl)c(Cl)c2)cc1", "> 100 µM (inactive)"],
  ["S=C(Nc1ccc2c(c1)oc1ccccc12)c1cccnc1", "> 100 µM (inactive)"],
  ["COc1ccccc1NC(=O)C(=O)C(C#N)CC(C)(C)C=O (stereo unspecified)", "> 100 µM (inactive)"],
  ["COC(=O)CC1CC2(C(=O)OC)c3[nH]c4ccccc4c3CCN2C1=O (stereo unspecified)", "> 100 µM (inactive)"]
]}

Query: # get_value(readout= GI50, system= SN12C) for CCCCCCCCCCCCCCCCCCN(C)CC(COP(=O)([O-])OCC[N+](C)(C)C)OC (stereo unspecified)
Result: 27.4 µM (inactive)

Query: Repeat for the following compound: O=C(O)C1=C(O)C(C(=O)O)C23CCCCCCCCCCC12C(C(=O)O)C(O)=C3C(=O)O (stereo unspecified)
Result: > 100 µM (inactive)

Query: Repeat for the following compound: Clc1ccc(-c2nnc3sc4nc5ccccc5c-4nn23)c(Cl)c1
Result: 50.6 µM (inactive)
